Target: T1, recombinant Fc-KAAG1 fusion protein (full-length human KAAG1 fused to human Fc, from pYD5-0447 in 293E cells) (human, UniProt Q9UBP8 1-84, biotinylated with NHS-biotin for the ELISA (sites not given))
T1 construct: Order of parts follows the printed name Fc-KAAG1; also called recombinant KAAG1; not shown: its limits and the linker to KAAG
T1 sequence: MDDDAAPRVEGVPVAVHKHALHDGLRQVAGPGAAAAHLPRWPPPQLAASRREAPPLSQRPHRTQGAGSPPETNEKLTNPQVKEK
Assay: ELISA, 1 ng Fab/well on Fc-KAAG1 [D00012 Figure 7C]
PROPERTY NAME: OD450 (OD450)

INSERT INTO results (binder, property_name, value) VALUES
  ('3G10 mouse anti-KAAG1 Fab (Fab, V domains shown, Recombinant mouse Fab made in E. coli; also called 3G10 Fab) VH: EIQLQQSGPELVKPGASVKISCKASGYTFTDNYMNWVKQSHGKSLEWIGDINPYYGTTTYNQKFKGKATLTVDKSSRTAYMELRGLTSEDSAVYYCARDDWFDYWGQGTLVTVSA VL: DVLMTQTPRSLSVSLGDQASISCRSSQSLLHSNGNTYLEWYLQKPGQPPKVLIYKVSNRFSGVPDRFSGSGSGTDFTLKISGVEAEDLGVYYCFQGSHVPLTFGAGTKLELK', 'OD450', 2.78),
  ('anti-KAAG1 Fab of well C2 (plate from Omniclonal library #3) (Fab, V domains shown) VH: DVQLQESGPDLVKPSQSLSLTCTVTGFSITSGYGWHWIRQFPGNKLEWMGYISFNGDSNYNPSLKSRISITRDTSKNQFFLQLNSVTSEDTATYYCASSYDGLFAYWGQGPLVTVSA VL: DIQMTQSPSSMYASLGERVTLTCKASQDIHNYLNWFQQKPGKSPKTLIHRANRLVAGVPSRFSGSGSGQDYSLTISSLEYEDLGIYYCLQYDAFPLTFGAGTKLELK', 'OD450', 0.32),
  ('anti-KAAG1 Fab of well D1 (plate from Omniclonal library #3) (Fab, V domains shown) VH: EVQLQESGPDLVKPSQSLSLTCTVTGFSITSGYGWHWIRQFPGDKLEWMGYISFNGDYNYNPSLKSRISITRDTSKNQFFLQLSSVTTEDTATYYCASSYDGLFAYWGQGTLVTVSA VL: DIKMTQSPSSMYASLGERVTITCKASQDIHTYLNWFQQKPGKSPETLIYRANRLVDGVPSRFSGSGSGQDYSLTISSLEYEDMGIYYCLQYDEFPLTFGAGTKLELK', 'OD450', 0.15);
